Recorded values, source patent US5554653A.

molecular target: HIV-1 protease (Human immunodeficiency virus type 1 group M subtype B, UniProt P04585); construct: Purified HIV-1 protease was obtained as described above; made in house; host or cells: E. coli K12 L507/pHP10D (NRRL B-18560); assay: biochemical; format: biochemical; conditions: read-out: Fluorescence Assay IC50 (converted)
quantity: IC50 (nM)

[P] CC(=O)N[C@H](CC(=O)NCc1ccccc1)C(=O)N[C@@H](Cc1ccccc1)[C@H](O)Cc1ccccc1C(=O)NC(C)(C)C
[Q] CC(C)(C)NC(=O)c1ccccc1C[C@@H](O)[C@H](Cc1ccccc1)NC(=O)[C@@H](CSCc1ccccc1)NS(C)(=O)=O [Example 19C]
-- ask So which one has the bigger IC50 here, P or Q ? Pick one; state its label.
-- reply P
(P: 341 nM, Q: 3.6 nM)
